The reported measurements were obtained from PubChem BioAssay (NCI).

test system: SF-295 CNS; experiment: NCI-60 one-dose screen, 48 h (100 = growth as untreated, 0 = no growth, -100 = all killed); settings: 10 µM unless noted
This is part of a sample that, as a whole, favours compounds with a hit. Of some 83,000 tested, about 20% had one in any assay.
Readout: growth (%)
Give bare numbers, in %.

CCN(CC)CCOc1ccc2ccc(=O)oc2c1 : 94.3

For each listed entry, give its growth.
1. Cc1nc2ccccc2c(/C=C/c2ccc(F)cc2)c1C(=O)/C=C/c1ccccc1
2. CN(C)c1ccc(/C=C2\C=C(c3nc4ccccc4s3)OC2=O)cc1
3. Cc1c(C(C)(C)O)cn2ncnc(Oc3ccc(NC(=O)Nc4ccc(Cl)c(C(F)(F)F)c4)c(F)c3)c12
4. COc1ccc(N/N=C/c2cn(-c3ccc(C(=O)O)cc3)nc2-c2cc3ccccc3oc2=O)cc1

[out]
1: 32.5; 2: 92; 3: 36.4; 4: 22.5

For each listed entry, give its growth.
1. Cc1nc([P+](c2ccccc2)(c2ccccc2)c2ccccc2)c(N2CCCCC2)o1
2. COc1ccc(-c2nc(SCC(=O)Nc3nc4ccc(C)cc4s3)[nH]c(=O)c2C#N)cc1OC

[out]
1. 32.7
2. 96.4

For each listed entry, give its growth.
1. COc1ccc(C2CC(n3ccnc3)c3cc(OC)c(OC)c(OC)c32)cc1O (stereo not given)
2. CNCCCNc1nc2ccccc2c2c(=O)c3cc(Cl)ccc3sc12
3. COc1ccc(-c2nc3ccc(C)cc3c3c2c(=O)n(C)c(=O)n3C)cc1OC

[out]
1: 57.5; 2: 62.6; 3: 91.3

---

test system: LOX IMVI melanoma; assay: NCI-60 one-dose screen, 48 h (100 = growth as untreated, 0 = no growth, -100 = all killed); settings: 10 µM unless noted
This is part of a sample that, as a whole, favours compounds with a hit. Of some 83,000 tested, about 20% had one in any assay.
So I've got a bunch of compounds here, and I need their growth values.
One number for each entry, in %.

For orientation, consider the following solved cases.
c1ccc(-c2c(-c3ccccc3)[n+](Cc3ccc4ccccc4c3)cn2Cc2ccc3ccccc3c2)cc1 : -99.5
CCOC(=O)C1=C(c2ccccc2)N=C2N(c3ccccc3)N=C(C(C)=O)N2C1c1ccc(F)cc1 (configuration not stated) : 102
COC(=O)c1nc(-c2ccccc2)oc1S(=O)(=O)N1CCCC(C)C1 (configuration not stated) : 61.6

For each listed entry, give its growth.
1. O=[N+]([O-])c1c(O)c(Cl)cc(Cl)c1Cl
2. O=C1NC(=O)C(c2coc3cc(Br)ccc23)=C1c1c[nH]c2ccccc12
3. COc1cc(-c2nccc3[nH]c(-c4cccc5[nH]ccc45)nc23)cc(OC)c1OC
4. CCCCn1c(NC(C)=O)c(S(=O)(=O)c2ccccc2)c2nc3ccccc3nc21
5. C=C1C(=O)O[C@H]2[C@H]1CC/C(CNC(=O)Cc1c[nH]c3ccccc13)=C\CC[C@@]1(C)O[C@@H]21
6. Fc1cc2[nH]ncc2c2c3c(c(-c4cn[nH]c4C(F)(F)F)nc12)CCCC3
7. COc1ccc(C2[C@@H](c3ccccc3)C(=O)N2c2cc(OC)c(OC)c(OC)c2)cc1F (some centres not stated)
8. Cc1[nH]c(C(=O)Nc2ccccc2OC2CCN(CCN3CCOCC3)CC2)c(Cl)c1Cl

[out]
1. 94.2
2. 44
3. 20.6
4. 101
5. -75.3
6. -50.6
7. 19
8. 86.3

For each listed entry, give its growth.
1. O=C(OCc1ccc2c(Cl)cc(Cl)c(O)c2n1)N1CCN(C(=O)c2cc3ccccc3[nH]2)CC1
2. CC(C)NS(=O)(=O)/N=C1\NC(=O)NC1=C(Cl)Cl
3. Cn1cc(-c2nc3c(F)cc4[nH]ncc4c3c3c2CCCC3)c(C(F)(F)F)n1
4. COC12C=C/C(=C(/C(=O)OCCSc3ccnn3C)C(=O)CCCCCCCCC3(OC)C=C/C(=C(/C(=O)OCCSc4ccnn4C)C(=O)CCCCCCCC1)O3)O2
5. CC(O)Cc1c[nH]c(=O)[nH]c1=O (configuration not stated)
6. CSc1ccc(N2C(=N)C(=S)N(c3ccc(C)cc3)C2=O)cc1
7. CC1(C)CC[C@]2(CO)CC[C@]3(C)[C@](O)([C@H](O)C[C@@H]4[C@@]5(C)CCCNC(C)(C)[C@@H]5CC[C@]43C)[C@@H]2C1

[out]
1. 24.6
2. 94.8
3. 28.7
4. -68.6
5. 96.5
6. 87.4
7. 87.8

---

So I've got a bunch of compounds here, and I need their growth values.
tested on: PC-3 prostate; test: NCI-60 one-dose screen, 48 h (100 = growth as untreated, 0 = no growth, -100 = all killed); conditions: 10 µM unless noted
This is part of a sample that, as a whole, favours compounds with a hit. Of some 83,000 tested, about 20% had one in any assay. Active and inactive are the calls of the source. The calls were made as follows: active = growth percent below 10; inactive = the rest.

Clc1cccc(C2Cc3cnccc3-c3[nH]c4ccncc4c32)c1 (centres undefined) : 21.1% (inactive)
O=CCCCOCc1ccccc1 : 95.6% (inactive)
Cn1cc(-c2nc3c(F)cc4[nH]ncc4c3c3c2CCCC3)c(C(F)(F)F)n1 : 0.262% (active)
COCCn1cc(-c2nc(-c3c[nH]c4ncccc34)cs2)c2ccccc21 : 33.2% (inactive)
Cn1c2ccccc2c2c3c(c4c5cc(Br)ccc5n(C)c4c21)C(=O)N(O)C3=O : 47% (inactive)

For each listed entry, give its growth.
1. NS(=O)(=O)c1ccc(C(=O)N=Nc2c(O)[nH]c3ccc(Cl)cc23)cc1
2. ClC(Cl)c1nc(-c2ccccc2)n2nc(-c3ccccc3)cc2n1
3. c1cc(OCCCCCOc2cccc(-c3nc4ccccc4[nH]3)c2)cc(-c2nc3ccccc3[nH]2)c1
4. C#COc1cccc(Nc2ncnc3cc(NC(=O)[C@H](C)Cl)ccc23)c1
5. COc1ccc2cc(C(=O)N3CCC([C@@H](C)C(=O)NCc4ccc5c(c4)OCO5)CC3)[nH]c2c1

[out]
["97.4% (inactive)", "17.2% (inactive)", "-13.1% (active)", "95.3% [6.25 µM] (inactive)", "56.5% [50 µM] (inactive)"]

For each listed entry, give its growth.
1. CN1C(=O)N2CN3CCCN(C3)CN3C(=S)NC1C23 (centres undefined)
2. COC1/C=C/OC2(C)Oc3c(C)c(O)c4c(O)c(c(/C=N/N(c5ccccc5)c5ccccc5)c(O)c4c3C2=O)NC(=O)C(C)=C/C=C/C(C)C(O)C(C)C(O)C(C)C(OC(C)=O)C1C (centres undefined)
3. Oc1c(I)cc(I)cc1CN(Cc1ccccn1)Cc1ccccn1
4. Cc1cc2oc(/C=C/c3ccccc3)cc(=O)c2c(C)c1Cl
5. CC1(C)N=C(N)N=C(N)N1c1cc(Cl)ccc1Cl
6. O=C(/C=C/C12c3ccccc3C(c3ccccc31)C1C(=O)NC(=O)C12)c1ccco1 (centres undefined)

[out]
98.4% (inactive)
38.7% (inactive)
28% (inactive)
96.7% (inactive)
101% (inactive)
31.9% (inactive)

For each listed entry, give its growth.
1. Oc1c(CN2CCC(N3CCOCC3)CC2)cc(Cc2cc(CN3CCC(N4CCOCC4)CC3)c(O)c3ncccc23)c2cccnc12
2. O=S(=O)(Nc1cc(Sc2nc3ccccc3s2)c(O)c2ccccc12)c1ccc2ccccc2c1
3. CCN(CC)CCOc1ccc(Nc2ncc3cc(-c4c(Cl)cccc4Cl)c(=O)n(CCOC)c3n2)cc1

[out]
["13.1% (inactive)", "77.3% (inactive)", "60% (inactive)"]

---

system: TK-10 renal; test: NCI-60 one-dose screen, 48 h (100 = growth as untreated, 0 = no growth, -100 = all killed); settings: 10 µM unless noted
About 83,000 compounds went through this panel and 20% of them were active in at least one assay; those are over-represented in the sample as a whole.
Lab note: compare growth against 90%. Equal or greater, write met. Smaller, write not met.

Observe how each entry below is paired with its result.
COC1C(O)CC(OC2CC(OC3CC(O[C@@H]4C(=O)c5c(cc6cc(OC7CC(OC8CC(O)C(O)C(C)O8)C(O)C(C)O7)c(C)c(O)c6c5O)CC4[C@H](OC)[C@@H](O)C(C)=O)OC(C)C3O)OC(C)C2O)OC1C (some centres undefined) : not met
Cc1cccc(N=Nc2cccc(C)c2)c1 : met
Cc1nc2sc(C(=O)Nc3ccccn3)c(N)c2cc1C(C)O (centres undefined) : not met

[in] Reported growth reaches at least 90% for Cc1ccc(S(=O)(=O)c2nc(-c3ccccc3)oc2SCC(N)=O)cc1 ?
[out] not met

[in] Reported growth reaches at least 90% for COc1cc2ncnc(Nc3ccc(F)c(Cl)c3)c2cc1OCC(=O)N1CCOCC1 ?
[out] not met

[in] Reported growth reaches at least 90% for CCOC(=O)C1=C(CCl)N(C)C(=O)NC1c1ccc2c(c1)OCO2 (centres undefined) ?
[out] not met

[in] Reported growth reaches at least 90% for O=C(/C=C/c1ccco1)Nc1ncc(Cc2cc(Cl)ccc2Cl)s1 ?
[out] not met

[in] Reported growth reaches at least 90% for CCOC(=O)C1=C(CC(O)c2ccc(OC)cc2OC)NC(=O)NC1c1ccccc1 (centres undefined) ?
[out] met
